These data points were gathered from paper PMC9790248.

Experiment: Itraconazole (strong CYP3A inhibitor) DDI study, plasma pharmacokinetics
Format: in vivo, human
Conditions: both sexes, human, plasma, po, ripretinib 50 mg single oral dose + itraconazole 200 mg QD, fasting, healthy participants (N = 20); read-out: AUC0–∞, arithmetic mean (SD)
Observed Property: AUC(0-inf) (ng·h/mL)
Number in ng·h/mL, nothing else.

Please fill in: AUC(0-inf) reported for CCn1c(=O)c(-c2cc(NC(=O)Nc3ccccc3)c(F)cc2Br)cc2cnc(NC)cc21 [Ripretinib] = 9190

* * *

Experiment: Pantoprazole (proton pump inhibitor) DDI study, plasma pharmacokinetics
Type: in vivo, human
Settings: both sexes, human, plasma, po, ripretinib 50 mg single oral dose + pantoprazole 40 mg QD, fasting, healthy participants (N = 23); read-out: t1/2, geometric mean (CV%) (converted)
Observed Property: half-life (h)
Record the value in h, omitting the unit from your answer.

The compound CCn1c(=O)c(-c2cc(NC(=O)Nc3ccccc3)c(F)cc2Br)cc2cnc(NC)cc21 showed half-life equal to 14

* * *

Assay: Pantoprazole (proton pump inhibitor) DDI study, plasma pharmacokinetics
Format: in vivo, human
Details: both sexes, human, plasma; ripretinib 50 mg single oral dose + pantoprazole 40 mg QD, fasting, healthy participants (N = 23); read-out: tmax, median (min, max)
Description: All studies were phase 1, fixed‐sequence, open‐label studies in healthy volunteers. […] Ripretinib and its active metabolite DP‐5439 plasma concentrations were measured using a validated high‐performance liquid chromatography (HPLC) with tandem mass spectrometry (LC‐MS/MS) assay with a lower limit of quantification (LLOQ) of 2.00 ng/mL for both analytes. […] Quantification was obtained by using multiple reaction monitoring mode of the transitions of mass to charge ratio [m/z] […]
Observed Property: Tmax

The molecule listed as CCn1c(=O)c(-c2cc(NC(=O)Nc3ccccc3)c(F)cc2Br)cc2cnc(NC)cc21 has a reported Tmax of 4 h

* * *

Experiment: Pantoprazole (proton pump inhibitor) DDI study, plasma pharmacokinetics
Assay type: in vivo, human
Details: both sexes, human, plasma, po, ripretinib 50 mg single oral dose + pantoprazole 40 mg QD, fasting, healthy participants (N = 23); read-out: Cmax, arithmetic mean (SD)
Observed Property: Cmax (ng/mL)
Report the figure in ng/mL without appending any unit label.

So for CCn1c(=O)c(-c2cc(NC(=O)Nc3ccccc3)c(F)cc2Br)cc2cnc(NC)cc21 , the logged Cmax turned out to be 319

* * *

Test: Pantoprazole (proton pump inhibitor) DDI study, plasma pharmacokinetics
Format: in vivo, human
Settings: both sexes, human, plasma, po, 50 mg, ripretinib 50 mg single oral dose alone, fasting, healthy participants (pantoprazole study, N = 23); read-out: AUC0–∞, arithmetic mean (SD)
Observed Property: AUC(0-inf)
Reply with the number and its unit after it.

Entry CCn1c(=O)c(-c2cc(NC(=O)Nc3ccccc3)c(F)cc2Br)cc2cnc(NC)cc21 [Ripretinib] ; AUC(0-inf) = 3950 ng·h/mL

* * *

Assay: Pantoprazole (proton pump inhibitor) DDI study, plasma pharmacokinetics
Assay type: in vivo, human
Details: both sexes, human, plasma, po, ripretinib 50 mg single oral dose + pantoprazole 40 mg QD, fasting, healthy participants (N = 23); read-out: AUC0–t, geometric mean (CV%)
Observed Property: AUC(0-t)
Answer shape: numeric part, then the unit.

Form field AUC(0-t), entry CCn1c(=O)c(-c2cc(NC(=O)Nc3ccccc3)c(F)cc2Br)cc2cnc(NC)cc21 : 3940 ng·h/mL
